Some molecules, each annotated with its measured IC50.
# Test system: P. falciparum 3D7 growth, pLDH absorbance
# Test Protocol: blood-stage malaria parasite growth potency – strain 3D7, dose response (AID 2305)
Field format: number, assumed nM, no unit text.

Molecule	IC50 [nM]
O=C(c1ccc(O)c(-c2cc(Cl)cc(Cl)c2)c1)N1CCCC1	1000
Oc1ccc(Cl)c2c1C(c1ccccc1)=NCC2	540

Problem: Please report the recorded IC50 for CCn1cc(-c2nc(-c3cc(OC)cc(OC)c3)no2)c(=O)c2ccccc21 .
Solution: 340

Problem: Queued: Cc1cccc(C=NNc2cc(C)nc3ccc(F)cc23)n1
Solution: 1000

Problem: Queued: Cc1ccc(C[C@H](C)NC[C@H](O)c2cccc(C(F)(F)F)c2)cc1
Solution: 980

Problem: Queued: NC(N)=NN=Cc1ccc2c(ccc3ccccc32)c1
Solution: 630

Problem: Queued: Nc1c(Cl)cc(C(O)CNCCCCCOCCc2ccccc2)cc1C(F)(F)F (centres undefined)
Solution: 980

Problem: Queued: CCCNCc1ccc(-c2ccc(CN(C(=O)c3nn(-c4ccccc4)nc3C)C(C)CN(C)C)cc2)nc1 (centres undefined)
Solution: 920

---

Some compounds, each annotated with its measured IC50.
# System: P. falciparum 3D7 growth, pLDH absorbance
# Test Protocol: blood-stage malaria parasite growth potency – strain 3D7, dose response (AID 2305)
Record the result as a number with its unit.

Compound	Measured Target	Measured Metric	Result
NS(=O)(=O)c1ccc(CNC(=O)c2cnc3c(O)cccc3c2Nc2cccc(NC(=O)c3ccc(Cl)c(Cl)c3)c2)cc1	P. falciparum 3D7 growth, pLDH absorbance	IC50	1720 nM
Cc1nc2ccccc2c(=O)n1N=Cc1ccccc1[N+](=O)[O-]	P. falciparum 3D7 growth, pLDH absorbance	IC50	220 nM
CCC(C)NS(=O)(=O)c1ccc2nc(Nc3ccc(C)c(Cl)c3)n([C@H](C)C(C)(C)C)c2c1 (some centres undefined)	P. falciparum 3D7 growth, pLDH absorbance	IC50	380 nM
COc1c(C2CCN(CCCCNC(=O)c3ccc(-c4ccc(C(F)(F)F)cc4)c(C(=O)OC(C)C)c3)CC2)ccc2c1CCCC2	P. falciparum 3D7 growth, pLDH absorbance	IC50	860 nM
COc1ccc2c(NN=Cc3cccc(Cl)c3)ccnc2c1	P. falciparum 3D7 growth, pLDH absorbance	IC50	720 nM
O=C(Nc1ccc(CN2CCOCC2)cc1)c1ccc(-c2cc(Cl)ccc2Cl)o1	P. falciparum 3D7 growth, pLDH absorbance	IC50	610 nM
O=C(Nc1ccccc1O)c1ccc(S(=O)(=O)c2ccc(Cl)cc2)cc1	P. falciparum 3D7 growth, pLDH absorbance	IC50	1350 nM
COc1ccc2sc(CNCCCNc3cc(=O)c4ccccc4[nH]3)c(Cl)c2c1	P. falciparum 3D7 growth, pLDH absorbance	IC50	1070 nM

Consider the record given below.
Problem: Tell me reported IC50 for COc1ccc(CNCc2ccc(F)cc2)cc1-c1ccc(S(=O)(=O)NCCN2CCCC2)s1 , tested with P. falciparum 3D7 growth, pLDH absorbance.
Solution: 710 nM

---

# Test system: P. falciparum 3D7 growth, pLDH absorbance
# Test Protocol: blood-stage malaria parasite growth potency – strain 3D7, dose response (AID 2305)
Measured Metric: pIC50
The meaning of pIC50 here: minus log10 of the concentration in molar units.

Compound	pIC50
O=C(NCCCCN1CCC(c2ccc3c(c2OCC2COCO2)CCCC3)CC1)c1ccc(-c2ccc(C(F)(F)F)cc2)cc1 (centres undefined)	6.06
COc1ccc(CNC(=O)c2cnc3c(O)cccc3c2Nc2cccc(NC(=O)c3ccc(Cl)c(Cl)c3)c2)cc1	6.22
FC(F)(F)c1ccc2c(NCCCNc3ccnc4cc(C(F)(F)F)ccc34)ccnc2c1	7.52
FC(F)(F)c1cccc(C=NNc2nc3ccccc3[nH]2)c1	6.82
NC(=O)c1cccc(Nc2nccc(Nc3ccc(Oc4cccc5ccccc45)cc3)n2)c1	5.94

Problem: Please report the recorded pIC50 for COc1cc(NC(=O)c2c(-c3c(Cl)cccc3Cl)noc2C)c(OC)cc1Cl .
Solution: 6.04

Problem: Queued: Cc1cccc2[nH]c(-c3ccc(-c4ccc(CN5CCC(C(N)=O)CC5)cc4)s3)nc12
Solution: 6.04

Problem: Queued: c1ccn2c(-c3ncnc(NCc4ccc5c(c4)CCO5)n3)cnc2c1
Solution: 5.92

Problem: Queued: CCCNCc1ccc(-c2ccc(CN(CCOC)C(=O)CCc3ccc(OC)cc3)cc2)nc1
Solution: 6.01
